- system-under-test: T1, human MSLN-FL-his protein (human, UniProt Q13421 296-580)
- T1 construct: Made in HEK293E cells, purified on nickel column; also called hMSLN-FL-his; human MSLN full-length protein; not shown: His tag
- T1 sequence (Q13421 other isoform, or with tags, fused parts or gaps): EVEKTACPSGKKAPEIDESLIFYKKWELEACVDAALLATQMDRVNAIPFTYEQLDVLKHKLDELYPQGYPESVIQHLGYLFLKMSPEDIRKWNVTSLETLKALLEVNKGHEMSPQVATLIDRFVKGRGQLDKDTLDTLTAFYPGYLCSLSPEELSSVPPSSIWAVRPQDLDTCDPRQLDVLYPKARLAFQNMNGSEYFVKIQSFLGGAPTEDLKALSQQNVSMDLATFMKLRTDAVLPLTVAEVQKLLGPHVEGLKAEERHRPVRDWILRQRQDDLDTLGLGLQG
- procedure-text: ELISA, coated antigen, antibody 0.2 nM
Each entry below carries its reported OD450.
Please state the value as a number alone, without comment.

Please indicate OD450 recorded for S009-F7.66.12 chimeric antibody (antibody, human IgG1, kappa, V domains shown, Human-murine chimeric antibody, human IgG1/kappa constant regions) VH: QIPLQQSGPELVKPGASVRISCKASDYAFSSSWMNWVKQRPEKGLEWIGRIFVESGNTHYNDKFNGKATLTADKSSRTAYIQLSSLTSEDSAVYFCTRENIFYHGHSSWFAYWGQGTLVTVSA VL: DIVLTQSPASLVVSLGQRATISCRAGESVDDFGISYVHWYQQKPGQPPKLLIYRAANLESGIPARFSGSGSRTDFTLTINPVETDDVAIYYCQQNNKDPFTFGSGTKLEIKR
2.24

Please indicate OD450 recorded for S009-F7.53.2 chimeric antibody (antibody, human IgG1, kappa, V domains shown, Human-murine chimeric antibody, human IgG1/kappa constant regions) VH: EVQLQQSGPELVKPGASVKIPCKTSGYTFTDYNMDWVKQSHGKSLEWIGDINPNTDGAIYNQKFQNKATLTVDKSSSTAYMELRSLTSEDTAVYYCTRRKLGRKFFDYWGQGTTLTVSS VL: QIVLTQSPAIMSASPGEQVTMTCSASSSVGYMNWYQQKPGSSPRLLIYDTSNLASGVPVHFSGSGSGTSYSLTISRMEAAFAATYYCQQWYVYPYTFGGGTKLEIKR
1.53

Please indicate OD450 recorded for S009-F7.11.11 chimeric antibody (antibody, human IgG1, kappa, V domains shown, Human-murine chimeric antibody, human IgG1/kappa constant regions) VH: EVQLQQSGPELVKPGASVKIPCKASGYTITDYNMDWVKQSRGKSLEWIGDVFPYNGDSIYNQKFEGRATLTVDKYSSTAYMELRGLTSEDTAVYFCARRKTGTGYFDVWGTGTTVTVSS VL: QLVLTQSPAIMSASPGEKVTLTCSASSSVSSTYLSWYLQKPGSSPKLWIYSTSNLASGVPARFSGSGSGTSYSLTISSMEAEDAASYFCHQWSSYPYTFGGGTKLEIKR
1.54

Now consider a different binder.
Please indicate OD450 recorded for S009-F7.65.13 chimeric antibody (antibody, human IgG1, kappa, V domains shown, Human-murine chimeric antibody, human IgG1/kappa constant regions) VH: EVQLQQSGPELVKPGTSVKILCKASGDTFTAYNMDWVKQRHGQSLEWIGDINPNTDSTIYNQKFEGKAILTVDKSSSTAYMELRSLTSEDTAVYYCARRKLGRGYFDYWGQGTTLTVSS VL: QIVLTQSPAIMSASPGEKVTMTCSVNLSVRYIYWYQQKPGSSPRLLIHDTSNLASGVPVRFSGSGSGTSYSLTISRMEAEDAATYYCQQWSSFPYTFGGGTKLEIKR
2.1
